The following compounds are shown together with reported CTG-3D luminescence at 96 h values.
- System: HCI-024 (organoid from a breast cancer xenograft)
- test.description: CTG-3D luminescence at 96 h relative to day-0 seeding control (ratio to day 0); higher = more growth / less cytotoxicity; PDxO 3D drug screen (set 2), 96 h, CTG-3D normalised to day-0 seeding control.
- experimental.setup: 625 fM; days in culture: 202

>  <mol>
CO[C@H]1C[C@@H]2CC[C@@H](C)[C@@](O)(O2)C(=O)C(=O)N2CCCC[C@H]2C(=O)O[C@H]([C@H](C)C[C@@H]2CC[C@@H](O)[C@H](OC)C2)CC(=O)[C@H](C)/C=C(\C)[C@@H](O)[C@@H](OC)C(=O)[C@H](C)C[C@H](C)/C=C/C=C/C=C/1C

>  <CTG-3D luminescence at 96 h>
1.53

$$$$
>  <mol>
CO[C@H]1C[C@@H]2CC[C@@H](C)[C@@](O)(O2)C(=O)C(=O)N2CCCC[C@H]2C(=O)O[C@H]([C@H](C)C[C@@H]2CC[C@@H](OCCO)[C@H](OC)C2)CC(=O)[C@H](C)/C=C(\C)[C@@H](O)[C@@H](OC)C(=O)[C@H](C)C[C@H](C)/C=C/C=C/C=C/1C

>  <CTG-3D luminescence at 96 h>
1.12

$$$$
